# assayed.target: SARS-CoV-2 spike protein receptor binding domain, wild-type (Wuhan type) (SARS-CoV-2, UniProt P0DTC2)
# experimental.protocol: BLI

binder	koff (s⁻¹)
H11-H4 nanobody, wild type (VHH) VHH: QVQLVESGGGLMQAGGSLRLSCAVSGRTFSTAAMGWFRQAPGKEREFVAAIRWSGGSAYYADSVKGRFTISRDKAKNTVYLQMNSLKYEDTAVYYCAQTHYVSYLLSDYATWPYDYWGQGTQVTVSS	0.0406
H11-H4 L106W mutant nanobody (VHH) VHH: QVQLVESGGGLMQAGGSLRLSCAVSGRTFSTAAMGWFRQAPGKEREFVAAIRWSGGSAYYADSVKGRFTISRDKAKNTVYLQMNSLKYEDTAVYYCAQTHYVSYLWSDYATWPYDYWGQGTQVTVSS	0.739
H11-H4 L106F mutant nanobody (VHH) VHH: QVQLVESGGGLMQAGGSLRLSCAVSGRTFSTAAMGWFRQAPGKEREFVAAIRWSGGSAYYADSVKGRFTISRDKAKNTVYLQMNSLKYEDTAVYYCAQTHYVSYLFSDYATWPYDYWGQGTQVTVSS	0.149
H11-H4 V102Y mutant nanobody (VHH) VHH: QVQLVESGGGLMQAGGSLRLSCAVSGRTFSTAAMGWFRQAPGKEREFVAAIRWSGGSAYYADSVKGRFTISRDKAKNTVYLQMNSLKYEDTAVYYCAQTHYYSYLLSDYATWPYDYWGQGTQVTVSS	0.543
H11-H4 H100Y mutant nanobody (VHH) VHH: QVQLVESGGGLMQAGGSLRLSCAVSGRTFSTAAMGWFRQAPGKEREFVAAIRWSGGSAYYADSVKGRFTISRDKAKNTVYLQMNSLKYEDTAVYYCAQTYYVSYLLSDYATWPYDYWGQGTQVTVSS	0.145
